# protocolNotes: recombinant UMI read abundance after kanamycin selection (control-corrected) (log10(CPM+1)); higher = more efficient recombination; extreme values may be limits of the assay; sequences stand for … in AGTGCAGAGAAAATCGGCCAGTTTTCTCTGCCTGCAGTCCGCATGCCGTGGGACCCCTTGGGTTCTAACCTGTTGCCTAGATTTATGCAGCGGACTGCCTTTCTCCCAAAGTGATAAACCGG…AGGTTGGTTTCACT; site = the 11-nt donor
Classification field. Basis: recombinant UMI read abundance (log10). Definitions: class 1 (below 0.01), class 2 (0.01 to below 0.7), class 3 (0.7 or more)

INSERT INTO assay_data (sequence, cat) VALUES
  ('AATGTGTCATGGACCGGTTTTCCCGGTAATCCGTATTTGAG (site AATGTGTCTAT)', 'class 3'),
  ('ATGAAGACATGGACCGGTTTTCCCGGTAATCCGTATTTGGA (site AGGAAGACTTG)', 'class 1'),
  ('TCTTCCGCATGGACCGGTTTTCCCGGTAATCCGTATTTGAT (site TCTTCCGCTAT)', 'class 1'),
  ('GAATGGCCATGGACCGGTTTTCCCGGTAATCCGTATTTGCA (site GAATGGCCTTC)', 'class 2'),
  ('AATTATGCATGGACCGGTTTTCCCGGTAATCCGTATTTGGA (site AACTATGCTTC)', 'class 3'),
  ('CGCATTTCATGGACCGGTTTTCCCGGTAATCCGTATTTGAG (site CGCATTTCTCT)', 'class 2'),
  ('AAGTTCCCATGGACCGGTTTTCCCGGTAATCCGTATTTGTG (site AGGTTCCCTCA)', 'class 2'),
  ('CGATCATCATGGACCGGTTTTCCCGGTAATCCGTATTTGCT (site GGATCATCTAG)', 'class 2');

* * *

# protocolNotes: recombinant barcode read abundance after kanamycin selection (control-corrected) (log10(CPM+1)); higher = more efficient recombination; sequences stand for … in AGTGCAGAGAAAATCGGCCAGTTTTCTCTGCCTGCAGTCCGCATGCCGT…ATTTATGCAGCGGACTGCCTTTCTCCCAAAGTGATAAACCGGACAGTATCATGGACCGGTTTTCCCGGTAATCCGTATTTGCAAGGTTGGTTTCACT; site = the 11-nt target
The label depends only on recombinant barcode read abundance (log10): t if it is at least 0.09, f if it is smaller.

INSERT INTO measurements (sequence, cat) VALUES
  ('CGCGCCCCATGGGTTCTAACCTGTTGCGGTG [CGCGCCCCTCC_LTGcore_CA_RTGcore_CA] (site CGCGCCCCTCC) (LTG core: CA, RTG core: CA)', 't'),
  ('GGGCGGACTTGGGTTCTAACCTGTTGCGGCC [GGGCGGACTCC_LTGcore_CT_RTGcore_GG] (site GGGCGGACTCC) (LTG core: CT, RTG core: GG)', 'f'),
  ('AAACAGTCTTGGGTTCTAACCTGTTGCCTGC [AAACAGTCTAG_LTGcore_CT_RTGcore_GC] (site AAACAGTCTAG) (LTG core: CT, RTG core: GC)', 't'),
  ('GGTGCCCCTTGGGTTCTAACCTGTTGCCGAC [GGTGCCCCTCG_LTGcore_CT_RTGcore_GT] (site GGTGCCCCTCG) (LTG core: CT, RTG core: GT)', 't');

* * *

# protocolNotes: recombinant barcode read abundance after kanamycin selection (control-corrected) (log10(CPM+1)); higher = more efficient recombination; sequences stand for … in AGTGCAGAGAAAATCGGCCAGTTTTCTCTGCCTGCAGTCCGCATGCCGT…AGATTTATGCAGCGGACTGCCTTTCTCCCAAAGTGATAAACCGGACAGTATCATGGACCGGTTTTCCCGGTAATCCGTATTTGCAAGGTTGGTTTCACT; site = the 11-nt target
The entries below are paired with their reported recombinant barcode read abundance (log10).
measurementName: recombinant barcode read abundance (log10)

INSERT INTO measurements (sequence, measurement) VALUES
  ('GTTTGGCCTTGGGTTCTAACCTGTTGCTT (site GTTTGTCCTAA)', 0.167),
  ('CTCTAAACTTGGGTTCTAACCTGTTGCCA (site CTCTAAACTTG)', 0.106),
  ('CTTGGAGCTTGGGTTCTAACCTGTTGCCT (site CTTGGACCTAG)', 0.247),
  ('TCGTTCGCTTGGGTTCTAACCTGTTGCCG (site GTCAGATCTAA)', 0.37),
  ('TAGGACGCTTGGGTTCTAACCTGTTGCCT (site TAAGACGCTAG)', 1.76);

* * *

# protocolNotes: recombinant UMI read abundance after kanamycin selection (control-corrected) (log10(CPM+1)); higher = more efficient recombination; extreme values may be limits of the assay; sequences stand for … in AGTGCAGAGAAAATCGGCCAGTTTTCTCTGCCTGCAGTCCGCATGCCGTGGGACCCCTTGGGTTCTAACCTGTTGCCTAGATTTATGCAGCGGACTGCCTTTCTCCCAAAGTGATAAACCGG…AGGTTGGTTTCACT; site = the 11-nt donor
Give Criterion met when the value for recombinant UMI read abundance (log10) is at least 0.3. Give Criterion not met when it is less.

INSERT INTO assay_data (sequence, cat) VALUES
  ('CGCTGTGCATGGACCGGTTTTCCCGGTAATCCGTATTTGCA (site CGCTGTGCTTG)', 'Criterion met'),
  ('GAGCTCACATGGACCGGTTTTCCCGGTAATCCGTATTTGGT (site GAGCTCACTAA)', 'Criterion not met'),
  ('ACAGGACCATGGACCGGTTTTCCCGGTAATCCGTATTTGGA (site ACAGGACCTTC)', 'Criterion not met'),
  ('TGGGCGGCATGGACCGGTTTTCCCGGTAATCCGTATTTGGC (site TGGGCGGCTGC)', 'Criterion met'),
  ('GAAGAGTCATGGACCGGTTTTCCCGGTAATCCGTATTTGTT (site GAAGAATCTAA)', 'Criterion met');

* * *

Catalogue of sequences with associated recombinant UMI read abundance (log10)
# protocolNotes: recombinant UMI read abundance after kanamycin selection (control-corrected) (log10(CPM+1)); higher = more efficient recombination; extreme values may be limits of the assay; sequences stand for … in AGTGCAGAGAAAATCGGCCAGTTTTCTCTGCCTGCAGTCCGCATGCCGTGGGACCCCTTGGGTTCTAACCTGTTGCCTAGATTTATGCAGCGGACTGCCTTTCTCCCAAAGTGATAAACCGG…AGGTTGGTTTCACT; site = the 11-nt donor
measurementName: recombinant UMI read abundance (log10)

INSERT INTO assay_data (sequence, measurement) VALUES
  ('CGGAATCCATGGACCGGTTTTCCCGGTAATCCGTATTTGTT (site AGGAATCCTAA)', 0),
  ('AGATTATCATGGACCGGTTTTCCCGGTAATCCGTATTTGCA (site ACAGTATCTTG)', 2.54),
  ('CCCGGTTCATGGACCGGTTTTCCCGGTAATCCGTATTTGCA (site CCCGGTACTTG)', 0),
  ('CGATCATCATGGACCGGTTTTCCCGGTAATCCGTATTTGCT (site CGATCTTCTAA)', 0),
  ('AGAATGGCATGGACCGGTTTTCCCGGTAATCCGTATTTGCT (site AGAACGGCTAG)', 1.47),
  ('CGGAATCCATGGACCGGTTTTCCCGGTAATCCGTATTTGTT (site AGGAATTCTAA)', 0),
  ('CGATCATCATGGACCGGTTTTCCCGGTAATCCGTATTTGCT (site TTATCATCTAG)', 1.88),
  ('CGAGGACCATGGACCGGTTTTCCCGGTAATCCGTATTTGGA (site CGAGGACCTGC)', 0),
  ('ACAGCAGCATGGACCGGTTTTCCCGGTAATCCGTATTTGCA (site ACAGCAGCTTG)', 2.49),
  ('ACTGGTGCATGGACCGGTTTTCCCGGTAATCCGTATTTGGT (site ACTTGTGCTAC)', 0.401),
  ('GTGTACGCATGGACCGGTTTTCCCGGTAATCCGTATTTGTC (site GTGTACGCTGA)', 2.81),
  ('TTCAATTCATGGACCGGTTTTCCCGGTAATCCGTATTTGCC (site TCCAATTCTGG)', 0),
  ('ACCTAGCCATGGACCGGTTTTCCCGGTAATCCGTATTTGGG (site ACCTAGTCTCC)', 0.0502),
  ('AGTAAGACATGGACCGGTTTTCCCGGTAATCCGTATTTGCA (site AGCAAGACTTG)', 2.39),
  ('CGTTTGACATGGACCGGTTTTCCCGGTAATCCGTATTTGCT (site CGTTTGGCTAG)', 1.12),
  ('CCAGGTTCATGGACCGGTTTTCCCGGTAATCCGTATTTGTC (site CCAGGTTCTGA)', 2.24),
  ('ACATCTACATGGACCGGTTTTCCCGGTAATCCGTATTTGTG (site ACATATACTCA)', 0.324),
  ('TAATGCTCATGGACCGGTTTTCCCGGTAATCCGTATTTGAA (site GAATGCTCTTT)', 0.106);
